# method_summary: Study on stability under influencing factors (high temperature, high humidity, light) of the crystal forms
# Format: physicochemical
# protocol_conditions: 60° C., open, 5 days
observation_type: Impurity content (%)

compound	Impurity content, %
Cn1cc(-c2nc(N=S(C)(C)=O)ccc2Oc2ccc(F)cc2F)c2cc[nH]c2c1=O [crystal form E]	0.20
Cn1cc(-c2nc(N=S(C)(C)=O)ccc2Oc2ccc(F)cc2F)c2cc[nH]c2c1=O [crystal form F]	0.18

(P) Cn1cc(-c2nc(N=S(C)(C)=O)ccc2Oc2ccc(F)cc2F)c2cc[nH]c2c1=O [crystal form D]
(Q) Cn1cc(-c2nc(N=S(C)(C)=O)ccc2Oc2ccc(F)cc2F)c2cc[nH]c2c1=O [crystal form I]
Between item P and item Q , which reported Impurity content is smaller? Write down the label of the entry you select.
P
